Origin of the recorded values: patent US20240150293A1

Target of assay: Mcl-1 protein (UniProtKB Q07820) (Homo sapiens (Human), UniProt Q07820)
Sequence (Q07820 whole entry): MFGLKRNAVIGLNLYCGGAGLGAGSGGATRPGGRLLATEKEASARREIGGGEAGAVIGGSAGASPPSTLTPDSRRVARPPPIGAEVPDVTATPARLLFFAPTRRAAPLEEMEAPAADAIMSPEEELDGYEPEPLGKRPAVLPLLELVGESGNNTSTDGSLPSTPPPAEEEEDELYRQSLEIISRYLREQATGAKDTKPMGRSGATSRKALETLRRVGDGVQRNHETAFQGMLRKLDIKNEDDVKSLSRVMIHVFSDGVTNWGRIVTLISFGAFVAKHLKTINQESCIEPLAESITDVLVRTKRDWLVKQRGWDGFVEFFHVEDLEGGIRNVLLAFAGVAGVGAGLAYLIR
Assay details: Inhibition of Mcl-1 by the fluorescence polarisation assay (Example A, Method A)
Assay type: binding
Condition label: fluorescence polarization assay
Parameter measured: log10 Ki (log10 of the value in nM)
Scale type: logarithmic (base 10). Underlying Ki unit: nM.

Some solved cases for reference:
Compound | log10 Ki
O=C(O)[C@]1(Nc2cccc(Cl)c2)CC[C@@]2(CC1)c1ccccc1CC2CCCOc1ccnc(F)c1 (mixture of isomers) | 2.35
Cc1csc(C2=Cc3ccccc3[C@]23CC[C@@](Nc2cccc(Cl)c2)(C(=O)O)CC3)c1 | 3.27
COc1ccc(C2Cc3ccccc3[C@]23CC[C@@](Nc2cccc(Cl)c2)(C(=O)O)CC3)c(Cl)c1 (single isomer, unassigned) [Example 268] | 3.01

q: Could you share which log10 Ki value was measured for O=C(O)[C@]1(Nc2cccc(Cl)c2)CC[C@@]2(CC1)c1ccccc1CC2OCCCc1ccccc1 (stereo partly shown) ?
a: 2.96

q: Quick one: COc1ccccc1CCOCC1=Cc2ccccc2[C@]12CC[C@@](Nc1cccc(Cl)c1)(C(=O)O)CC2
a: 2.49

q: Quick one: O=C(O)[C@]1(Nc2cccc(Br)c2)CC[C@]2(CC1)C(CCCOc1ccnc3ccsc13)=Cc1ccccc12
a: 2.15

q: Quick one: Cc1cc(Br)cc2c1N(C)C(=O)[C@]21CC[C@@](Nc2cccc(Br)c2)(C(=O)O)CC1
a: 4.41

---

Target of assay: Cy5-labelled Mcl1 (amino acids 171-321) C286S protein (UniProtKB Q07820) (Homo sapiens (Human), UniProt Q07820, C286S)
Sequence (Q07820 171-321 C286S): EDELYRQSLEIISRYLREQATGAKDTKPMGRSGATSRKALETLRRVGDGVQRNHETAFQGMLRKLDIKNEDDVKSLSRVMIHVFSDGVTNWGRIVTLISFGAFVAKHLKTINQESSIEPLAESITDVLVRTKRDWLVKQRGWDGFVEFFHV
Assay details: Inhibition of Mcl-1 by the fluorescence quenching assay (Example A, Method B)
Assay type: binding
Parameter measured: pKi
In plain terms, pKi is the concentration in mol/L turned into minus its base-10 logarithm.

q: Could you share which pKi value was measured for C[C@@H](COc1ccnc2c1[C@H](C)CCC2)C[C@H]1Cc2ccccc2[C@]12CC[C@@](Nc1cccc(C#N)c1)(C(=O)O)CC2 ?
a: 8.33

---

Target of assay: Mcl-1 protein (UniProtKB Q07820) (Homo sapiens (Human), UniProt Q07820)
Assay details: Inhibition of Mcl-1 by the fluorescence polarisation assay (Example A, Method A)
Condition label: fluorescence polarization assay
// log10(Ki) lookup, one value per entry
Scale type: logarithmic (base 10). Underlying Ki unit: µM.

Some solved cases for reference:
Compound | log10(Ki)
COCC(F)(F)CC1Cc2ccccc2[C@]12CC[C@@](Nc1cccc(Cl)c1)(C(=O)O)CC2 (stereo partly shown) | 1.89
COc1ccc([C@H]2Cc3ccccc3[C@]23CC[C@@](Nc2cccc(Cl)c2)(C(=O)O)CC3)cc1 | 0.64
O=C(O)[C@]1(Nc2cccc(Cl)c2)CC[C@@]2(CC1)c1ccccc1CC2c1cccc(Oc2cccnc2)c1 (single isomer, unassigned) | -0.72
O=C(O)[C@]1(Nc2cccc(Br)c2)CC[C@]2(CC1)C(Br)=Cc1ccccc12 | -1.06
O=C(O)[C@]1(Nc2cccc(Cl)c2)CC[C@@]2(CC1)c1ccccc1C[C@H]2C[C@H](COc1ccccc1)c1ccccc1 | 0.10

q: Could you share which log10(Ki) value was measured for O=C(O)[C@]1(Nc2cccc(Cl)c2)CC[C@@]2(CC1)c1ccccc1CC2CCOCc1ccccc1 (stereo partly shown) ?
a: -0.49

q: Quick one: CC(C)C(COc1ccccc1)CC1Cc2ccccc2[C@]12CC[C@@](Nc1cccc(Cl)c1)(C(=O)O)CC2 (single isomer, unassigned) [Example 529]
a: 0.63

---

Target of assay: Mcl-1 protein (UniProtKB Q07820) (Homo sapiens (Human), UniProt Q07820)
Assay details: Inhibition of Mcl-1 by the fluorescence polarisation assay (Example A, Method A)
Condition label: fluorescence polarization assay
pKi: −log10 of the molar value.
# label = MET if pKi >= 5 else NOT MET

Molecule | Target of assay | Group
Cc1ccc(S(=O)(=O)N2Cc3ccccc3C23CCC(Nc2cccc(Cl)c2)(C(=O)O)CC3)cc1 (single isomer, unassigned) [Example 28] | Mcl-1 protein (UniProtKB Q07820) (Homo sapiens (Human), UniProt Q07820) | NOT MET
O=C(O)[C@]1(Nc2cccc(Br)c2)CC[C@@]2(CCCc3ccccc32)CC1 | Mcl-1 protein (UniProtKB Q07820) (Homo sapiens (Human), UniProt Q07820) | MET
O=C(O)[C@]1(Nc2cccc(Cl)c2)CC[C@@]2(CC1)c1ccccc1CC2c1cccc(Oc2ccncc2)c1 (single isomer, unassigned) | Mcl-1 protein (UniProtKB Q07820) (Homo sapiens (Human), UniProt Q07820) | MET
O=C(O)[C@]1(Nc2cccc(Cl)c2)CC[C@]2(CC1)C(COCCc1ccccc1Cl)=Cc1ccccc12 | Mcl-1 protein (UniProtKB Q07820) (Homo sapiens (Human), UniProt Q07820) | MET
Cc1ccc2c(c1)[C@]1(CC[C@](Nc3cccc(Br)c3)(C(=O)O)CC1)C(=O)N2C | Mcl-1 protein (UniProtKB Q07820) (Homo sapiens (Human), UniProt Q07820) | NOT MET

Shift focus to the following entry.
q: Quick check: does CC(C)C(COc1ccccc1)CC1Cc2ccccc2[C@]12CC[C@@](Nc1cccc(Cl)c1)(C(=O)O)CC2 (single isomer, unassigned) [Example 531] have pKi greater than or equal to 5?
a: MET

---

// IC50 lookup, one value per entry
Tested on: H929 multiple myeloma tumor line
Assay details: In vitro cytotoxicity, MTT assay (Example B, Method A)
Type: cell-based
Condition label: H929 cells, 48 hours exposure, read-out: C50
Note: unit nM is implicit; provide only the numeric part.

Some solved cases for reference:
Compound | Parameter measured | Readout units | Data value
C[C@@H]1CCCc2nccc(OCC(F)CC3Cc4ccccc4[C@]34CC[C@@](Nc3cccc(Cl)c3)(C(=O)O)CC4)c21 (single isomer, unassigned) [Example 507] | IC50 | nM | 2240
O=C(O)[C@]1(Nc2cccc(Cl)c2)CC[C@@]2(CC1)c1ccccc1CC2CC(COc1ccnc2ccsc12)Cc1ccccc1 (single isomer, unassigned) [Example 561] | IC50 | nM | 12300
Cc1cn(C[C@H](C)C[C@H]2Cc3ccccc3[C@]23CC[C@@](Nc2cccc(Cl)c2)(C(=O)O)CC3)c2c(c1=O)C(C)CCC2 (single isomer, unassigned) | IC50 | nM | 18100
Cc1cccc2c1CC(C[C@@H](C)COc1ccnc3c1[C@H](C)CCC3)[C@]21CC[C@](Nc2cccc(Cl)c2)(C(=O)O)CC1 (single isomer, unassigned) | IC50 | nM | 58.4
CC(C)C(COc1ccnc2ccsc12)CC1Cc2ccccc2[C@]12CC[C@@](Nc1cccc(Cl)c1)(C(=O)O)CC2 (single isomer, unassigned) [Example 524] | IC50 | nM | 30000

q: Could you share which IC50 value was measured for C[C@@H]1CCCc2nccc(OCC(CC3Cc4ccccc4[C@]34CC[C@@](Nc3cccc(Cl)c3)(C(=O)O)CC4)C(F)F)c21 (single isomer, unassigned) [Example 520] ?
a: 10400

q: Quick one: C[C@@H](COc1ccnc2c1[C@H]1CCC[C@H]1C2)C[C@H]1Cc2ccccc2[C@]12CC[C@@](Nc1cccc(Cl)c1)(C(=O)O)CC2 (single isomer, unassigned) [Example 621]
a: 2520

q: Quick one: C[C@@H]1CCCc2nccc(OCC(CC3Cc4ccccc4[C@]34CC[C@@](Nc3cccc(Cl)c3)(C(=O)O)CC4)C(F)F)c21 (single isomer, unassigned) [Example 519]
a: 202

q: Quick one: C[C@@H]1CCCc2nccc(OCC(CC3=Cc4ccccc4[C@]34CC[C@@](Nc3cccc(Cl)c3)(C(=O)O)CC4)C(F)F)c21 (single isomer, unassigned) [Example 517]
a: 550

q: Quick one: CC(C)C(COc1ccccc1)CC1Cc2ccccc2[C@]12CC[C@@](Nc1cccc(Cl)c1)(C(=O)O)CC2 (single isomer, unassigned) [Example 531]
a: 15900

q: Quick one: C[C@@H](COc1ccnc2c1[C@H](C)CC[C@H]2O)C[C@H]1Cc2ccccc2[C@]12CC[C@@](Nc1cccc(Cl)c1)(C(=O)O)CC2 [Example 676]
a: 65.6

---

Target of assay: Mcl-1 protein (UniProtKB Q07820) (Homo sapiens (Human), UniProt Q07820)
Assay details: Inhibition of Mcl-1 by the fluorescence polarisation assay (Example A, Method A)
Condition label: fluorescence polarization assay
Parameter measured: Ki
The reply should consist of the numeric value with the unit placed after it.

Some solved cases for reference:
Compound | Target of assay | Parameter measured | Data value
O=C(O)[C@]1(Nc2cccc(Cl)c2)CC[C@@]2(CC1)c1ccccc1CC2c1ccccc1 (single isomer, unassigned) [Example 328] | Mcl-1 protein (UniProtKB Q07820) (Homo sapiens (Human), UniProt Q07820) | Ki | 677 nM
COc1ccc(C2=Cc3ccccc3[C@]23CC[C@@](Nc2cccc(Cl)c2)(C(=O)O)CC3)cc1Cl | Mcl-1 protein (UniProtKB Q07820) (Homo sapiens (Human), UniProt Q07820) | Ki | 1190 nM
O=C(O)[C@]1(Nc2cccc(Cl)c2)CC[C@]2(CC1)C(C1CC1)=Cc1ccccc12 | Mcl-1 protein (UniProtKB Q07820) (Homo sapiens (Human), UniProt Q07820) | Ki | 2150 nM

q: Could you share which Ki value was measured for O=C(O)[C@]1(Nc2cccc(Cl)c2)CC[C@@]2(CC1)c1ccccc1CC2CCCOc1ccccc1 (stereo partly shown) [Example 423] ?
a: 224 nM

q: Quick one: CC1CCc2nccc(OCCCC3Cc4ccccc4[C@]34CC[C@@](Nc3ccccc3)(C(=O)O)CC4)c21 (stereo partly shown)
a: 236 nM

q: Quick one: O=C(O)[C@]1(Nc2cccc(Cl)c2)CC[C@]2(CC1)C(CCCCc1ccccc1)=Cc1ccccc12
a: 150 nM

q: Quick one: O=C(O)[C@]1(Nc2cccc(Cl)c2)CC[C@]2(CC1)C(COCc1ccccc1)=Cc1ccccc12
a: 506 nM
